system: VchCAST RNA-guided transposition machinery (E. coli BL21(DE3) host, lacZ target); experiment: relative integration efficiency (T-LR orientation) vs wild-type transposon end (log2 (normalized fold change)); transposon end mutated: right end (5 bp flank + 75 bp right end); higher = more efficient transposition
QUANTITY MEASURED: relative integration efficiency (log2)
Give bare numbers.

Answered cases to consult:
SEQUENCE CONTENT	relative integration efficiency (log2)
ACATTTGTCGATACAACCCTAAAATGATAATTACACCCATAAATTGATAATTATCACACCCAATTTAACTATAACGCTCTGATCATAGTCAGACCAACATTGCTACGACCCGTATTCGCACCGACAC	1.04
ACATTTGTTGATACAACCATATTATGATAATTACACCCATAAATTGATAATTATCACACCCATAAATTGATATTGCCTCTGATCATAGTCAGACCAACATTGCTACGACCCGTATTCGCACCGACAC	-0.476
ACATTTGTTCATACAACCATAAAATGATAATTACACCCATAAATTGATAATTATCACCCCCAATTTAACTATAACGCTCTGATCATAGTCAGACCAACATTGCTACGACCCGTATTCGCACCGACAC	0.97
ACATTTGTTGATAAAACCATAAAATGATTATTAGAAACCATAATCTGAAATTATCACACCCATAAATTGATATTGCCTCTGATCATAGTCAGACCAACATTGCTACGACCCGTATTCGCACCGACAC	-2.22

Qu. Please look at this sequence and report its relative integration efficiency (log2): `ACATTTGTTGATACAACCATAAAAGGATAATTCACCCCTAAATTGATAATTATCACACCCACATTTAACTATAACGCTCTGATCATAGTCAGACCAACATTGCTACGACCCGTATTCGCACCGACAC`
Ans. -0.705
